System: EKVX
assay remarks: NCI tumour cell line growth inhibition, 48 h
Activity calls are given as the source filed them. No stated cut-off is given here; in the data, active = GI50 up to about 1.1 µM and inactive = higher.
Catalogue of GI50 readings, one per entry.

Look up and report measured GI50 for this entry: COC(=O)CCC(=O)c1ccc2c(c1)CCC2
> 100 µM (inactive)

State its GI50 for this molecule: O=c1oc2ccccc2n1CCCn1c(=O)oc2ccccc21
> 100 µM (inactive)

Dear colleague, please send me the reported GI50 for COc1ccc(N2C(=O)C3c4[nH]c5ccc(C)cc5c4C4CCC(C(C)C)CC4C3C2=O)cc1 (stereo not drawn) when you can.
> 100 µM (inactive)

====

Test system: IGROV-1
assay remarks: NCI tumour cell line growth inhibition, 48 h
Activity calls are given as the source filed them. No stated cut-off is given here; in the data, active = GI50 up to about 1.1 µM and inactive = higher.
In this section we review reported GI50 values for a set of molecules.

// known answers, use as guide
- molecule: "COc1cc(NC(C)CCCN)c2nccc(C)c2c1 (stereo not drawn)"
  result: "16.5 µM (inactive)"
- molecule: "CC(C)=CC(=O)CC(=O)C(=O)NCCNC(=O)C(=O)CC(=O)C=C(C)C"
  result: "> 50 µM (inactive)"

// switching to the query molecule
Look up and report measured GI50 for this entry: COC(=O)C1=C(C(=O)OC)C23CC1C1C(C(=O)OC)=C(C(=O)OC)C12C1C=CC3C2C(=O)OC(=O)C21 (stereo not drawn)
59 µM (inactive)

====

System: SNB-19
assay remarks: NCI tumour cell line growth inhibition, 48 h
Activity calls are given as the source filed them. No stated cut-off is given here; in the data, active = GI50 up to about 1.1 µM and inactive = higher.
Reported GI50 values for the following compounds.

- compound: "CC(=O)C1=C(O)C2C3c4c[nH]c5cccc(c45)CC3C(C)(C)N2C1=O (centres undefined)"
  target or test system: "SNB-19"
  result: "15.4 µM (inactive)"
- compound: "O=C(/C=C/c1ccccc1)CC(=O)CCC(=O)Nc1ccc(Cl)cc1"
  target or test system: "SNB-19"
  result: "> 100 µM (inactive)"
- compound: "COc1cc2c3cc1Oc1c(OC)c(OC)cc4c1C(Cc1ccc(O)c(c1)-c1cc(ccc1OC)CC3N(C)CC2)N(C)CC4 (centres undefined)"
  target or test system: "SNB-19"
  result: "22.3 µM (inactive)"
- compound: "C=CCN1C(=O)C(=O)N(CC=C)C(=O)C1=O"
  target or test system: "SNB-19"
  result: "> 100 µM (inactive)"
- compound: "COC(=O)c1cc2ccccc2c2nc3ccccc3c(Cl)c12"
  target or test system: "SNB-19"
  result: "37.4 µM (inactive)"

Name the recorded GI50 of the item CC1(C)C2CCC(N)(C2)C1O (centres undefined) in your answer.
> 100 µM (inactive)

Report measured GI50; entry is N#C/C(=C/NC(N)=S)C(N)=O
> 100 µM (inactive)

Respond only with GI50 recorded for CC(C)(C)C1=CC(=C2C(=O)C(=O)c3ccccc3C2=O)C=C(C(C)(C)C)C1=O
> 100 µM (inactive)

Supply recorded GI50 for CCC(C)(O)c1cn(-c2ccc(S(=O)(=O)O)cc2)nn1 (centres undefined) here.
> 100 µM (inactive)

Give reported GI50 value for NC1CCCCC1.O=C(O)C(CP(=O)(O)O)=C(Cl)Cl
> 100 µM (inactive)

Using the record for CCCCCCCCCCCC(=O)CC(=O)c1c(O)cccc1O , state its measured GI50.
20 µM (inactive)

Fill in reported GI50 for this entry: COc1ccc2nc(-c3ccc(N)cc3)sc2c1
18.5 µM (inactive)

Supply reported GI50 belonging to this compound: CC(=O)OC(Cc1cc(C=C(C(F)(F)F)C(F)(F)F)cc(C)n1)(C(F)(F)F)C(F)(F)F
1.88 µM (inactive)

State, in one line, measured GI50 of CCCC(=O)Nc1ccc(O)c2c1C1CCCCCC21 (centres undefined)
> 100 µM (inactive)
